Every entry's value here was drawn from PubChem BioAssay (NCI).

test system: UACC-257 melanoma; assay: NCI tumour cell line growth inhibition, 48 h
Reported property: TGI

For orientation, consider the following solved cases.
C=C1C(=O)OC2(C)CCC1CC1OC1(C)CCC=C(C)CCC2O (stereo unspecified) ... > 100 µM
Cc1nc(-n2nc(-c3ccccc3)cc2-c2ccccc2)sc1C(=O)CC(=O)C(=O)Nc1ccc(O)cc1 ... > 100 µM
Cc1c2ccccc2c(C)n2c1nc1cc(Cl)c(Cl)cc12 ... > 100 µM
CC1=C(SCCC(=O)OC(C[Se]C2=C(C)C(=O)c3ccccc3C2=O)C(=O)NC(C)(C)C)C(=O)c2ccccc2C1=O (stereo unspecified) ... 3.2 µM
COC(=O)C#CC(N)=O ... > 70.7 µM
CCOc1ccccc1N=Cc1c2ccccc2cc2ccccc12 ... > 74.4 µM
CN(C)CCOc1ccc2c(c1)C(=O)/C(=C\c1ncc([N+](=O)[O-])n1C)C2 ... 3.19 µM
CCOC(=O)CC(C)C1(C=O)CCCCC1=O (stereo unspecified) ... > 100 µM
CCOC(=O)C1CCCN1C(=O)c1ccccc1Cl (stereo unspecified) ... > 100 µM
Cc1ccc(C)c2c1n1c(=O)n(C)c(=O)n21 ... > 100 µM

Next item in the queue.
State its TGI for this compound: CS(=O)(=O)CCNCc1ccoc1-c1ccc2ncnc(Nc3ccc(OCc4ccccc4)cc3)c2c1
> 25 µM

---

system: HCT-15 colon; test: NCI tumour cell line growth inhibition, 48 h
Reported property: TGI

Recorded results for 5 compounds are shown here.
CCOC(=O)N(O)c1ccc(/C=C/c2ccccc2)cc1 ... 37.4 µM
CC(=O)c1c(O)cc(O)c(-c2c(C)cc(O)c3c2C(=O)c2cccc(O)c2C3=O)c1O ... 28.6 µM
COc1ccc(S(=O)(=O)Nc2cc(Sc3cccc4cccnc34)c(O)c3ccccc23)cc1 ... 8.23 µM
O=C(N/C(=C\c1ccc(F)cc1)c1nc2ccccc2[nH]1)c1ccccc1 ... > 100 µM
c1ccc(OCc2nnc(CCCCCCCCc3nnc(COc4ccccc4)o3)o2)cc1 ... > 100 µM

With those in mind, consider the next compound.
State its TGI for this compound: CCCCCC/C(CC(=O)CCC(=O)NCCc1ccccc1)=N\Nc1ccc([N+](=O)[O-])cc1[N+](=O)[O-]
> 100 µM

---

Reported TGI values are given for each entry in this list.
system: KM12 colon; test: NCI tumour cell line growth inhibition, 48 h

The cases that follow already have their TGI on record.
Nc1ccn(CC(O)c2cc3ccccc3[nH]2)c(=O)n1 (stereo unspecified) ... > 100 µM
Cc1cc(OCc2nnc3n2N=C(c2cc(F)c(Cl)cc2Cl)/C(=C/c2ccc(-c4ccc(Cl)cc4)o2)S3)ccc1Cl ... > 50 µM
O=C1c2cc3ncsc3cc2C(=O)c2c(O)ccc(O)c21 ... > 100 µM
CCOc1ccccc1N=Cc1c2ccccc2cc2ccccc12 ... 49.3 µM
Cc1c(C2CCSc3ccccc3N2)sc2ccccc12 (stereo unspecified) ... > 100 µM

// below: TGI requested for another compound
Kindly indicate its recorded TGI. Item: COc1ccc(F)cc1-c1ccnc2[nH]c(C3=CCN(C4CCC(CC(=O)O)CC4)CC3)cc12 (stereo unspecified)
> 100 µM

---

test system: IGROV1 ovarian; test: NCI tumour cell line growth inhibition, 48 h; in the data active means GI50 below about 0.43 µM; inactive means the rest
Choose the fitting class; nothing outside active, inactive is accepted.

Cn1cc(-c2csc(-c3cn(C(=O)OC(C)(C)C)c4ccccc34)n2)c2cccnc21 ... inactive

Given N=C1C=C(N)C(=O)c2ccccc21 , state the outcome it received in this test.
active

Write down the call the test reported for this compound. Item: CCSc1nc(N)c2cnn(CC)c2n1
inactive

Answer briefly: the call reported for COc1ccc2c(c1)C=CC1C2CC[C@]2(C)C(NC(=O)/C=C/c3ccc(O)c(O)c3)CCC12 (some centres undefined) in this assay.
inactive

Please let me know the test result on file for CC1=C(SCCC(=O)OC(C[Se]C2=C(C)C(=O)c3ccccc3C2=O)C(=O)NC(C)(C)C)C(=O)c2ccccc2C1=O (centres undefined) .
inactive

---

system: SK-MEL-5 melanoma; test: NCI tumour cell line growth inhibition, 48 h
Reported property: GI50

These recorded examples may help you get a feel for the data.
C=C(CN1CCN(c2ccc(F)c(Cl)c2)CC1)c1ccc(C(=O)Nc2ccccc2N)cc1 ... 5.62 µM
N=C(N)c1ccc(-c2ccc(-c3ccc(Cl)cc3Cl)s2)nc1 ... 1.77 µM

Answer with reported GI50 of N#Cc1cc2c(cc1Cl)SC(=Nc1ccccc1)N(S(=O)(=O)c1ccc(Br)s1)S2(=O)=O
16 µM

Retrieve GI50 measured for CSc1nc2ccc(C)cc2cc1/C=C1/C=C(c2ccccc2)NC1=O and print it.
21.3 µM

Return the recorded GI50 value; entry: C1CC[N-]CC1.CC(=N\O)/C(C)=N/O.CC(=N\O)/C(C)=N/O.C[CH-]C(C)O.[Co+2]
20.1 µM

---

tested on: HOP-62 NSCLC; assay: NCI tumour cell line growth inhibition, 48 h
Reported property: GI50

COc1ccc(/C=C/C(=O)c2ccc(Nc3nc(Nc4ccc(F)cc4)nc(Nc4ccc(F)cc4)n3)cc2)cc1 ... 13.1 µM
O=C(/C=C/c1ccc(Cl)cc1Cl)c1ccc(Cl)cc1Cl ... 26.1 µM
Cc1cc2nc(-c3ccc(O)c(O)c3)n(Cc3ccc(O)c(O)c3)c2cc1C ... 45.6 µM
CC[C@@H](C(=O)[C@@H](C)[C@@H](O)[C@H](C)[C@@H]1O[C@@H]([C@@H](CC)C(=O)O)CC[C@@H]1C)[C@H]1O[C@]2(C=C[C@@H](O)[C@]3(CC[C@@](C)([C@H]4CC[C@](O)(CC)[C@H](C)O4)O3)O2)[C@H](C)C[C@@H]1C ... 1.12 µM
CCOC(=O)N(O)c1ccc(/C=C/c2ccccc2)cc1 ... 7.45 µM

Return GI50 (reported value) for this compound: N=C1C=C(N)C(=O)c2ccccc21
0.204 µM

---

tested on: RXF 393 renal; assay: NCI tumour cell line growth inhibition, 48 h; in the data active = GI50 below about 0.43 µM; inactive = the rest
Pick from t (active), f (inactive) when you respond.

O=S(=O)(Nc1ccc(Cl)c(Cl)c1)c1ccc(-c2cnc(C3CC3)o2)cc1 ... t

Each compound tested received a call. Report the one for CC(=O)[O][Hg][c]1s[c]([Hg][O]C(C)=O)[c]([Hg][O]C(C)=O)[c]1[Hg][O]C(C)=O .
f

Check the results log: what was the call for O=C(N/N=C/c1ccc(N(CCCl)CCCl)cc1)c1ccc(C(=O)N/N=C/c2ccc(N(CCCl)CCCl)cc2)cc1 ?
f

GET /call?item= Cn1cc(-c2csc(-c3cn(C(=O)OC(C)(C)C)c4ccccc34)n2)c2cccnc21 returns the recorded outcome of this test.
f

---

test system: NCI-H460 lung
Tick one outcome: active, inactive

Worked cases, answers included:
C=C(CN1CCN(c2ccc(F)c(Cl)c2)CC1)c1ccc(C(=O)Nc2ccccc2N)cc1 ... inactive
Cn1cc(-c2csc(-c3cn(C(=O)OC(C)(C)C)c4ccccc34)n2)c2cccnc21 ... inactive
CN(C)CCOc1ccc2c(c1)C(=O)/C(=C\c1ncc([N+](=O)[O-])n1C)C2 ... active
COC(=O)Nc1nc2ccc(C(=O)c3cccs3)cc2[nH]1 ... active
CC[C@@H](C(=O)[C@@H](C)[C@@H](O)[C@H](C)[C@@H]1O[C@@H]([C@@H](CC)C(=O)O)CC[C@@H]1C)[C@H]1O[C@]2(C=C[C@@H](O)[C@]3(CC[C@@](C)([C@H]4CC[C@](O)(CC)[C@H](C)O4)O3)O2)[C@H](C)C[C@@H]1C ... inactive
O=S(=O)(Nc1ccc(Cl)c(Cl)c1)c1ccc(-c2cnc(C3CC3)o2)cc1 ... active
N=C1C=C(N)C(=O)c2ccccc21 ... inactive
Cc1cc2nc(-c3ccc(O)c(O)c3)n(Cc3ccc(O)c(O)c3)c2cc1C ... inactive

# lookup: test call for C[C@@H](C[C@H](CCO)c1ccccc1)c1ccc2ccccc2c1
inactive

Could you check what this test reported for CC1=C(SCCC(=O)OC(C[Se]C2=C(C)C(=O)c3ccccc3C2=O)C(=O)NC(C)(C)C)C(=O)c2ccccc2C1=O (stereo not given) ?
inactive

---

Collected TGI values appear next to each entry.
system: UACC-257 melanoma; test: NCI tumour cell line growth inhibition, 48 h

COC(=O)C(C)Oc1ccc(O)cc1 (stereo not given) ... > 100 µM

Give recorded TGI. Cc1cc(OCc2nnc3n2N=C(c2cc(F)c(Cl)cc2Cl)/C(=C/c2ccc(-c4ccc(Cl)cc4)o2)S3)ccc1Cl
> 50 µM

Determine its reported TGI: O=[N+]([O-])c1ccc2nc(-c3ccc(Cl)cc3)[nH]c2c1
43.2 µM

Supply reported TGI belonging to this molecule: CCCCCC/C(CC(=O)CCC(=O)NCCc1ccccc1)=N\Nc1ccc([N+](=O)[O-])cc1[N+](=O)[O-]
> 100 µM

Let me know recorded TGI for CN1C/C(=C\c2cccs2)C(=O)/C(=C/c2cccs2)C1 , thanks.
> 100 µM

Return reported TGI. Input molecule: CNC(=O)c1cc(-c2ccc(F)cc2)cc(-c2ccc(S(=O)(=O)N3CCCC3)cc2)c1N
> 25 µM
